# target.system: carbonyl BSA (Bos taurus, UniProt P02769)
# Sequence (P02769 25-607): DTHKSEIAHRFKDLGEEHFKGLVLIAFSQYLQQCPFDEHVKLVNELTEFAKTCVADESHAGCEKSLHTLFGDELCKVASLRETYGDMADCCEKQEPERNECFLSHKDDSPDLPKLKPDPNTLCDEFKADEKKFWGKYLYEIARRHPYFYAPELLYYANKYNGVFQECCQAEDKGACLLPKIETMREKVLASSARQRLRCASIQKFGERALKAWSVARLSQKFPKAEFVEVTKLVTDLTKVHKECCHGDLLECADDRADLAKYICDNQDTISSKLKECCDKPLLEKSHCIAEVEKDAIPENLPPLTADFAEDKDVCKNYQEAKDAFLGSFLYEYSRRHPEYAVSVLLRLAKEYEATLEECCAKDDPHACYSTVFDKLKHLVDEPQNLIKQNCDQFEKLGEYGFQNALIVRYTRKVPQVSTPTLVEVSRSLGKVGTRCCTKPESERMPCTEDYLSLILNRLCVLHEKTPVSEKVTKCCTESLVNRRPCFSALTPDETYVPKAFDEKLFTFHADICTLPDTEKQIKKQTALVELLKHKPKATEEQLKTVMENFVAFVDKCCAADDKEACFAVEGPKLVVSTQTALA
# measurement.description: Carbonyl protein reduction test with carbonyl BSA model (OxyBlot dot blot)
# Type: biochemical, bovine
# condition.label: test—3; sole use of organic acid or amino acid (0.1 w/v % as headed); Control = 1
property.name: Ratio of carbonyl BSA

| compound | target.system | Ratio of carbonyl BSA |
| --- | --- | --- |
| O=C(O)c1ccccc1 [J, benzoic acid] | carbonyl BSA (Bos taurus, UniProt P02769) | 0.95 |
| C/C=C/C=C/C(=O)O [I, sorbic acid] | carbonyl BSA (Bos taurus, UniProt P02769) | 1.04 |
| CC(=O)O [H, acetic acid] | carbonyl BSA (Bos taurus, UniProt P02769) | 1.08 |
| NCC(=O)O [K, glycine] | carbonyl BSA (Bos taurus, UniProt P02769) | 0.71 |
| O=C[C@H](O)[C@H]1OC(=O)[C@@H](O)[C@H]1O [G, glucuronolactone] | carbonyl BSA (Bos taurus, UniProt P02769) | 1.07 |
| COc1cc(/C=C/C(=O)O)ccc1O [E, ferulic acid] | carbonyl BSA (Bos taurus, UniProt P02769) | 0.82 |
| N[C@@H](CCC(=O)[O-])C(=O)[O-].[Na+].[Na+] [L, sodium glutamate] | carbonyl BSA (Bos taurus, UniProt P02769) | 0.77 |
| O=C(O)C(O)C(O)C(=O)O (centres unmarked) [B, tartaric acid] | carbonyl BSA (Bos taurus, UniProt P02769) | 0.95 |
| CC(O)C(=O)O (centres unmarked) [A, lactic acid] | carbonyl BSA (Bos taurus, UniProt P02769) | 0.89 |
| O=C(O)CC(O)(CC(=O)O)C(=O)O [C, citric acid] | carbonyl BSA (Bos taurus, UniProt P02769) | 0.96 |
| O=C[C@H](O)[C@@H](O)[C@H](O)[C@H](O)C(=O)O [F, glucuronic acid] | carbonyl BSA (Bos taurus, UniProt P02769) | 1.01 |

----------
# target.system: carbonyl BSA (Bos taurus, UniProt P02769)
# measurement.description: Carbonyl protein reduction test with carbonyl BSA model (OxyBlot dot blot)
# Type: biochemical, bovine
# condition.label: test—2 (Table 5); single use 0.1 w/v %; Control = 1
property.name: Ratio of carbonyl BSA

Check out these entries, answers already filled in.
| compound | target.system | Ratio of carbonyl BSA |
| --- | --- | --- |
| CC(=O)N[C@H]1C(O)O[C@H](CO)[C@@H](O)[C@@H]1O (stereo partly shown) | carbonyl BSA (Bos taurus, UniProt P02769) | 0.48 |
| OC[C@H]1O[C@H](O[C@H]2[C@H](O)[C@@H](O)C(O)O[C@@H]2CO)[C@H](O)[C@@H](O)[C@@H]1O (mixture of isomers) | carbonyl BSA (Bos taurus, UniProt P02769) | 0.18 |

[P] OC[C@H]1O[C@H](OC[C@H]2O[C@H](O[C@]3(CO)O[C@H](CO)[C@@H](O)[C@@H]3O)[C@H](O)[C@@H](O)[C@@H]2O)[C@H](O)[C@@H](O)[C@H]1O
[Q] OC[C@H]1O[C@H](O[C@H]2[C@H](O)[C@@H](O)[C@@H](O[C@H]3[C@H](O)[C@@H](O)[C@@H](O[C@H]4[C@H](O)[C@@H](O)C(O)O[C@@H]4CO)O[C@@H]3CO)O[C@@H]2CO)[C@H](O)[C@@H](O)[C@@H]1O (stereo partly shown)
Enquiry: Sort P and Q by Ratio of carbonyl BSA descending and give the first. Give the label under which the chosen entry appears.
Return: Q

----------
# target.system: UniProt:P02769
# measurement.description: Carbonyl protein reduction test with carbonyl BSA model (OxyBlot dot blot)
# Assay type: biochemical, bovine
# condition.label: test—2; combination use of composition containing glycosyl hesperetin (0.1 w/v %) and the labelled saccharide (0.1 w/v %)
property.name: Ratio of carbonyl BSA

| molecule | value.measured |
| --- | --- |
| OC[C@H]1O[C@H](O[C@H]2[C@H](O)[C@@H](O)[C@@H](O[C@H]3[C@H](O)[C@@H](O)[C@@H](O[C@H]4[C@H](O)[C@@H](O)C(O)O[C@@H]4CO)O[C@@H]3CO)O[C@@H]2CO)[C@H](O)[C@@H](O)[C@@H]1O (stereo partly shown) [Maltotetraose, maltotetraose] | 0.13 |

[1] OC[C@H]1O[C@H](O[C@H]2[C@H](O)[C@@H](O)C(O)O[C@@H]2CO)[C@H](O)[C@@H](O)[C@@H]1O (mixture of isomers) [Maltose, maltose]
[2] OC[C@H]1O[C@H](OC[C@H]2O[C@H](O[C@]3(CO)O[C@H](CO)[C@@H](O)[C@@H]3O)[C@H](O)[C@@H](O)[C@@H]2O)[C@H](O)[C@@H](O)[C@H]1O [Raffinose, raffinose]
[3] CC(=O)N[C@H]1C(O)O[C@H](CO)[C@@H](O)[C@@H]1O (stereo partly shown) [N-Acetyl glucosamine]
Enquiry: With regard to Ratio of carbonyl BSA, arrange the entries in ascending order, please. List the labels according to the requested ordering.
Return: 1, 2, 3
(1: 0.11, 2: 0.54, 3: 0.79)
